tested on: kochia (Kochia scoparia); assay: Test D controlled growth environment herbicide test, pre- and postemergence; assay type: in vivo; settings: postemergence, 62 g ai/ha; scale 0 to 100, 0 no effect, 100 complete control
Plant response rating, Kochia reference
Answer as a number with no unit attached.

Record excerpt, results attached:
INSERT INTO results (compound, assay_value) VALUES
  ('Cc1ccc2sc(Br)c(-c3c(O)c(C)nn(C)c3=O)c2c1', 80),
  ('Cc1nn(C)c(=O)c(-c2ccc(F)c3ccccc23)c1O', 95),
  ('Cc1nn(C)c(=O)c(-c2cccc3ccc(Br)cc23)c1O', 80),
  ('Cc1ccc2ccccc2c1-c1c(OC(=O)OC(C)C)c(C)nn(C)c1=O', 95),
  ('Cc1nn(C)c(=O)c(-c2cccc3ccccc23)c1O', 75);

As a next step, examine the molecule that follows.
Q) // query Plant response rating, Kochia value for entry Cc1cc2ccccc2c(-c2c(O)c(C)nn(C)c2=O)c1C
A) 85
